Listing of recorded interaction score by entry.
Molecular target: T1, 4H3354-bH
T1 chain: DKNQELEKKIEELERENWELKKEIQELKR
Experiment: two-hybrid library CCNG1;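 also: natural log of median RNA to DNA barcode read ratio; higher means stronger binding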
MEASURE: interaction score

In [3]: df
Out[3]:
                                     binder            measure  numeric_readout
0  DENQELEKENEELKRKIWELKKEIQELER [4H1257-bH]  interaction score            -0.79
1  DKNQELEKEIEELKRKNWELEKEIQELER [4H3185-bH]  interaction score           -0.583
2  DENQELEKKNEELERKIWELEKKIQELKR [4H1446-bH]  interaction score            0.818
3  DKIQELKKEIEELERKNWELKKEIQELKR [4H2618-bH]  interaction score            0.422
